All values here come from the kinase profiling compilation of Christmann-Franck et al. (2016).

target: DYRK1B (human) (UniProt Q9Y463); assay: radiometric filter-binding kinase assay, Kinase HotSpot; details: compound 0.5 µM; ATP 10 µM
Sequence (Q9Y463 whole entry, looked up): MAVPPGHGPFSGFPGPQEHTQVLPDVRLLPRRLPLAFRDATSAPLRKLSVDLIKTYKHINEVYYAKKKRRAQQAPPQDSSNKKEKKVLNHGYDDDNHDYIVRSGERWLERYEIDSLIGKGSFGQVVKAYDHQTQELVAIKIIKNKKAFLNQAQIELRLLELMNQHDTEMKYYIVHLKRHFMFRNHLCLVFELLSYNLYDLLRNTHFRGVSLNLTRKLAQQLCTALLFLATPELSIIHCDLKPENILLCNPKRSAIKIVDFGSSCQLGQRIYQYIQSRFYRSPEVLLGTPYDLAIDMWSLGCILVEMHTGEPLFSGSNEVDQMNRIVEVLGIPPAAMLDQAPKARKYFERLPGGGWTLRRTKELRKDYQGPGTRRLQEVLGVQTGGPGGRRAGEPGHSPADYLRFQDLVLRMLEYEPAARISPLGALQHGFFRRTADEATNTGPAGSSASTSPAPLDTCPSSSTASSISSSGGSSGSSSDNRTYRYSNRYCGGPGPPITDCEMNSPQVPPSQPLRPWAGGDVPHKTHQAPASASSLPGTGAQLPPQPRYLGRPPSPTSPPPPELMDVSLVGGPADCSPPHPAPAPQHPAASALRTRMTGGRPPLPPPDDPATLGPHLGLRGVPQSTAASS
metric.name: residual activity (%)

CC(C)N(CCC(=O)c1ccc2ccccc2c1)Cc1ccccc1 = 101
CNC(=O)c1cc(Oc2ccc(NC(=O)Nc3ccc(Cl)c(C(F)(F)F)c3)cc2)ccn1 = 93.2
CC#CC(=O)Nc1cc2c(Nc3ccc(F)c(Cl)c3)ncnc2cn1 = 103
Cc1[nH]c(/C=C2\C(=O)Nc3ccc(S(=O)(=O)N(C)c4cccc(Cl)c4)cc32)c(C)c1C(=O)N1CCN(C)CC1 = 98.9
Nc1ccc2ncnc(NCCc3ccc(Oc4ccccc4)cc3)c2c1 = 104
N#CC(C#N)=C(N)/C(C#N)=C/c1ccc(O)cc1 = 101
CCN(CC)CCNC(=O)c1c(C)[nH]c(/C=C2\C(=O)Nc3ccc(F)cc32)c1C = 60
Nc1cccc(-c2cc3c(Oc4cccc(O)c4)ncnc3[nH]2)c1 = 100
CCN(CC)CCNC(=O)c1c(C)[nH]c(/C=C2\C(=O)Nc3ccc(Cl)cc32)c1C = 47.5
O=c1cc(N2CCOCC2)oc2c1ccc1ccccc12 = 90.5

---

molecular target: OXSR1 (human) (UniProt O95747); assay: radiometric filter-binding kinase assay, Kinase HotSpot; settings: compound 0.5 µM; ATP 10 µM
Sequence (O95747 whole entry, looked up): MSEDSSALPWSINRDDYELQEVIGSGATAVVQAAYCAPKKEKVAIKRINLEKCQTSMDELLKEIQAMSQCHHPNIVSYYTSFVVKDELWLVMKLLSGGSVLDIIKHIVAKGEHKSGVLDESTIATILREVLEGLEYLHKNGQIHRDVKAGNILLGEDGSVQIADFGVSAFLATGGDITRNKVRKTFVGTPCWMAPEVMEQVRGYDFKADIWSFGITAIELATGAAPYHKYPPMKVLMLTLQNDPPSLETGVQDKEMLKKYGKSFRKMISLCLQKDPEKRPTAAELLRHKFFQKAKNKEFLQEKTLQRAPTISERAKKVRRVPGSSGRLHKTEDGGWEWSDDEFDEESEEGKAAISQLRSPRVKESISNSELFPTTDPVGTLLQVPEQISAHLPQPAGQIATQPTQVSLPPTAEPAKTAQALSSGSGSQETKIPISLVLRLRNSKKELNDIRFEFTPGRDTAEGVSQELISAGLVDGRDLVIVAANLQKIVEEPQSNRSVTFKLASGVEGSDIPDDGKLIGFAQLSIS
Catalogue of residual activity readings, one per entry.
metric.name: residual activity

CO[C@H]1CC2CC[C@@H](C)[C@@](O)(O2)C(=O)C(=O)N2CCCC[C@H]2C(=O)OC([C@H](C)C[C@@H]2CC[C@@H](O)[C@H](OC)C2)CC(=O)[C@H](C)/C=C(\C)[C@@H](O)[C@@H](OC)C(=O)[C@H](C)C[C@H](C)/C=C/C=C/C=C/1C (some centres undefined) = 96.6%
CC(=O)c1ccc(N2CCOCC2)cc1O = 115%
Nc1ccc2ncnc(NCCc3ccc(Oc4ccccc4)cc3)c2c1 = 101%
O=C1NC(=O)C(c2cn(CCCn3ccnc3)c3ccccc23)=C1Nc1ccccc1 = 97.2%
Nc1ncnc2[nH]nc(Nc3ccc(F)cc3)c12 = 110%
Cc1[nH]c(/C=C2\C(=O)Nc3ccc(S(=O)(=O)N(C)c4cccc(Cl)c4)cc32)c(C)c1C(=O)N1CCN(C)CC1 = 116%
CCOC(=O)c1c(C)[nH]c(/C=C2\C(=O)Nc3ccccc32)c1C = 87.9%
CC#CC(=O)Nc1cc2c(Nc3ccc(F)c(Cl)c3)ncnc2cn1 = 109%
N#CC(C#N)=C(N)/C(C#N)=C/c1ccc(O)cc1 = 72.2%
CNC(=O)c1cc(Oc2ccc(NC(=O)Nc3ccc(Cl)c(C(F)(F)F)c3)cc2)ccn1 = 103%
COc1ccc(COc2ccc(Cc3cnc(N)nc3N)cc2OC)cc1 = 103%
c1ccc(-c2n[nH]c3c2oc2ccccc23)cc1 = 101%
CCN(CC)CCNC(=O)c1c(C)[nH]c(/C=C2\C(=O)Nc3ccc(F)cc32)c1C = 105%
COc1ccc2c(c[n+](C)c3c4cc5c(cc4ccc23)OCO5)c1OC = 94.8%
CC(C)N(CCC(=O)c1ccc2ccccc2c1)Cc1ccccc1 = 106%
COc1cc2ncnc(Nc3cccc(Cl)c3)c2cc1OC = 92%
Cc1ccc(Nc2nccc(N(C)c3ccc4c(C)n(C)nc4c3)n2)cc1S(N)(=O)=O = 103%
CC[n+]1c(/C=C/N(C)c2ccccc2)n(-c2ccccc2)c2ccc(-c3nc4ccccc4s3)cc21 = 94.2%
Nc1ncnc2c1c(-c1ccc(Oc3ccccc3)cc1)cn2C1CCCC1 = 93.5%
Oc1cccc(-c2nc(N3CCOCC3)c3oc4ncccc4c3n2)c1 = 93.2%
O=C1NC(=O)/C(=C/c2ccc3c(c2)OC(F)(F)O3)S1 = 97.1%
N#C/C(=C(/N)Sc1ccc(N)cc1)c1ccccc1C(F)(F)F = 101%
Nc1cccc(-c2cc3c(Oc4cccc(O)c4)ncnc3[nH]2)c1 = 119%
O=c1cc(N2CCOCC2)oc2c1ccc1ccccc12 = 108%
